system: G(−) bacterial strains; test: Dilution antimicrobial susceptibility tests (MIC, NCCLS agar dilution / broth dilution); assay type: cell-based, Gram-negative organisms; conditions: strain #3 Acinetobacter baumannii, Cf-R, Ci-R, Mp-I; unit assumed
# note: exactly 2 µg/mL is not below, so it is not met; use met for MIC strictly under it

Quick check: MIC of C[C@@H](O)C1C(=O)N2C(C(=O)O)=C(CN3CC[C@H](NS(N)(=O)=O)C3)[C@H](C)C12 (some centres unmarked) under 2 µg/mL?
not met

Next molecule up: C[C@@H](O)C1C(=O)N2C(C(=O)O)=C(CN3CC[C@H](NC(=N)N)C3)[C@H](C)C12 (some centres unmarked)
met

Next molecule up: CC(O)C1C(=O)N2C(C(=O)O)=C(CN3CCC(C(=N)N)C3)C(C)C12 (centres unmarked) [Compound 185a]
met

Next molecule up: CC(=O)NC(=N)N[C@H]1CCN(CC2=C(C(=O)O)N3C(=O)C([C@@H](C)O)C3[C@H]2C)C1 (some centres unmarked)
not met

Next molecule up: C[C@@H](O)C1C(=O)N2C(C(=O)[O-])=C(C[N+]3(C)CC[C@H](NC(=N)N)C3)[C@H](C)C12 (some centres unmarked)
not met

Next:
Quick check: MIC of C[C@@H](O)C1C(=O)N2C(C(=O)O)=C(CN3CC[C@H](C(=O)NS(C)(=O)=O)C3)[C@H](C)C12 (some centres unmarked) under 2 µg/mL?
not met

Next molecule up: C[C@@H](O)C1C(=O)N2C(C(=O)O)=C(CN3CC[C@H](NC=N)C3)[C@H](C)C12 (some centres unmarked)
met

Next molecule up: C[C@@H](O)C1C(=O)N2C(C(=O)O)=C(CN3CC[C@H](NC(=N)NS(C)(=O)=O)C3)[C@H](C)C12 (some centres unmarked)
not met

Next molecule up: `C[C@@H](O)[C@H]1C(=O)N2C(C(=O)O)=C(CN3C[C@@H](O)[C@H](NC(=N)N)C3)[C@H](C)[C@H]12`
met

Next molecule up: C[C@@H](O)C1C(=O)N2C(C(=O)O)=C(CN3CC(N)C3)[C@H](C)C12 (some centres unmarked)
not met

Next molecule up: C[C@@H](O)C1C(=O)N2C(C(=O)O)=C(CN3CC[C@H](N(C)C)C3)[C@H](C)C12 (some centres unmarked)
not met

Next molecule up: CN[C@H]1CCN(CC2=C(C(=O)O)N3C(=O)C([C@@H](C)O)C3[C@H]2C)C1 (some centres unmarked)
not met

Next molecule up: C[C@@H](O)C1C(=O)N2C(C(=O)O)=C(CN3CCC(NC(=O)CNC(=N)N)C3)[C@H](C)C12 (some centres unmarked)
not met

Next molecule up: C[C@@H](O)C1C(=O)N2C(C(=O)O)=C(CN3CC[C@H](C(=O)N(C)C)C3)[C@H](C)C12 (some centres unmarked)
not met

Next molecule up: C[C@@H](O)C1C(=O)N2C(C(=O)O)=C(CN3CC(NC(=N)N)C3)[C@H](C)C12 (some centres unmarked)
met

Next molecule up: C[C@@H](O)C1C(=O)N2C(C(=O)O)=C(CN3CC[C@H](C(=O)NC(=N)N)C3)[C@H](C)C12 (some centres unmarked)
not met

Next molecule up: C[C@@H](O)C1C(=O)N2C(C(=O)O)=C(CN3CC[C@H](C#N)C3)[C@H](C)C12 (some centres unmarked)
not met

Next molecule up: C[C@@H](O)C1C(=O)N2C(C(=O)O)=C(CN3CC[C@H](C(=O)NCC(N)=O)C3)[C@H](C)C12 (some centres unmarked)
not met

Next molecule up: CC(=O)N[C@H]1CCN(CC2=C(C(=O)O)N3C(=O)C([C@@H](C)O)C3[C@H]2C)C1 (some centres unmarked)
not met

Next molecule up: C[C@@H](O)C1C(=O)N2C(C(=O)O)=C(CN3CC[C@H](NCC(N)=O)C3)[C@H](C)C12 (some centres unmarked)
not met

// data source = patent US9937151B2
